Each entry below carries its recorded CC50 at 40 h.
assay_protocol: Cytotoxicity against dog MDCK cells assessed as reduction in cell viability incubated for 40 hrs by celltiter-glo assay
Assay type: toxicity, cell-based, Canis lupus familiaris

molecule	CC50 at 40 h
CCOC(=O)C1=C[C@@H](OC(CC)CC)[C@H](NC(C)=O)[C@@H](N)C1.O=P(O)(O)O [OSELTAMIVIR PHOSPHATE]	> 100 µM
CC1(C)CC[C@]2(C(=O)NCc3cn([C@@H]4O[C@H](CO)[C@@H](O)[C@H](O)[C@H]4O)nn3)CC[C@]3(C)C(=CC[C@@H]4[C@@]5(C)CC[C@H](O)C(C)(C)[C@@H]5CC[C@]43C)[C@@H]2C1	> 100 µM
